- target_or_system: FLT3 D835Y (Homo sapiens, UniProt P36888, D835Y)
- Sequence (P36888 27-993 D835Y): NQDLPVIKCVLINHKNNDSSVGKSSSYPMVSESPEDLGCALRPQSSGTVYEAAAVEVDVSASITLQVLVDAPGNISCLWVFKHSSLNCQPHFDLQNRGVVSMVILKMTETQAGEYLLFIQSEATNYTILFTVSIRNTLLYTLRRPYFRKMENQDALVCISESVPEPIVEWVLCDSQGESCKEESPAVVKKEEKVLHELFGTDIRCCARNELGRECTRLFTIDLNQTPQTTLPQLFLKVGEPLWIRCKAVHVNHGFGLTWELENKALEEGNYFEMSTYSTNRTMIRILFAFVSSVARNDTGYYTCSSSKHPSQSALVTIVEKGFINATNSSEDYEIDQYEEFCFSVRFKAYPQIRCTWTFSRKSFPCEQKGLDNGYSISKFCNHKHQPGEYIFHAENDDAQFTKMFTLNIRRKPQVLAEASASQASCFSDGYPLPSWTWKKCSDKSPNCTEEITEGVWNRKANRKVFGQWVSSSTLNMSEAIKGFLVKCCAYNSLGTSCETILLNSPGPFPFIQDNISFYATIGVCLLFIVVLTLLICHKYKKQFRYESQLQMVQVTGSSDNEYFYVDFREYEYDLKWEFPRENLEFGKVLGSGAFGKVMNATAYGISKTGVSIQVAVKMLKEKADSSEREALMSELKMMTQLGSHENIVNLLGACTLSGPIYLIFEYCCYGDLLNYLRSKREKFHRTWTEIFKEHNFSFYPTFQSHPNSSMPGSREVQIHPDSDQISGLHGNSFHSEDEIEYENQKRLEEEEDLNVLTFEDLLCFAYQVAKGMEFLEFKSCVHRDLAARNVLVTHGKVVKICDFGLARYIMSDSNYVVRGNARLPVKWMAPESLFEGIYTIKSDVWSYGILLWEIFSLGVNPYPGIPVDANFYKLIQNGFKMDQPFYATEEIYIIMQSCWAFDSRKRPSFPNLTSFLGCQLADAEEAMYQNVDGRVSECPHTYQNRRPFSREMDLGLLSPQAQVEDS
- method_notes: DiscoverX KINOMEscan competition binding, FLT3 D835Y
pKd: −log10 of the molar value.
property_label: pKd

Below, 3 compounds whose answers are already recorded.
| compound | target_or_system | pKd |
| --- | --- | --- |
| FC(F)c1cn2c(-c3cccc(N[C@H]4CNCC[C@@H]4F)n3)cnc2cn1 [Compound 25] | FLT3 D835Y (Homo sapiens, UniProt P36888, D835Y) | 10.15 |
| Cn1cc(-c2cn3c(-c4cccc(N[C@H]5CNC[C@@H]5F)n4)cnc3cn2)cn1 [Compound 52] | FLT3 D835Y (Homo sapiens, UniProt P36888, D835Y) | 10.19 |
| FC(F)(F)C1(c2cn3c(-c4cccc(N[C@@H]5CCNC5)n4)cnc3cn2)CC1 [Compound 10] | FLT3 D835Y (Homo sapiens, UniProt P36888, D835Y) | 10.36 |

(I) FC(F)(F)COc1cn2c(-c3cccc(N[C@@H]4CCNC4)n3)cnc2cn1 [Compound 38]
(II) CC(C)(O)c1cn2c(-c3cccc(N[C@H]4CNCC[C@@H]4F)n3)cnc2cn1 [Compound 31]
When the recorded pKd values are compared, which is smaller: that of I or that of II ? Give the chosen item's label as your response.
II
(II: 9.74, I: 10.46)

meta.source: patent US12612410B2
